Target: T1, R3 (RHAMM-R3) peptide/HLA-A*02:01 complex on T2 cells (human)
T1 construct: Control target of the phage staining of T2 cells; also called T2 cells pulsed with R3 peptide; RHAMM 3 (R3)
Test: flow cytometry, phage on T2 + R3 peptide; secondary only 126, unstained 94.4
recorded metric: Median:FITC-A
Please give only the number in your answer, with no unit.

binder	result number
(FoxP2)_#4 (scFv, also called EXT019-4; EXT019-04 scFv phage clone) scFv (VL-linker-VH-His/HA tag): QPVLTQPPSVSVAPGKTARITCGGNNIGSKSVHWYQQKPGQAPVLVIYYDSDRPSGIPERFSGSNSGNTATLTISRVEAGDEADYYCQVWDSSSDHPVFGGGTKLTVLGSRGGGGSGGGGSGGGGSLEMAQVQLVQSGAEVKKPGSSVKVSCKASGGTFSSYAISWVRQAPGQGLEWMGGIIPIFGTANYAQKFQGRVTITADESTSTAYMELSSLRSEDTAVYYCARSSYWWTSDRWGQGTLVTVSSTSGQAGQHHHHHHGAYPYDVPDYAS	145
(FoxP2)_#9 (scFv, also called EXT019-9; EXT019-09 scFv phage clone) scFv (VL-linker-VH-His/HA tag): SYELTQPPSVSVAPGKTARITCGGNNIGSKSVHWYQQKPGQAPVLVIYYDSDRPSGIPERFSGSNSGNTATLTISRVEAGDEADYYCQVWDSSSDHWVFGGGTKLTVLGSRGGGGSGGGGSGGGGSLEMAQVQLVQSGGGLVQPGGSLKLSCAASGFAFSGSSLHWVRQASGKGLEWVGRITSKAYNYATLYAASVKGRFTISRDDSKNTAYLQMNSLQTEDTAVYYCTQTGDSSAYWGQGTLVTVSSTSGQAGQHHHHHHGAYPYDVPDYAS	148
(FoxP2)_#6 (scFv, also called EXT019-6; EXT019-06 scFv phage clone) scFv (VL-linker-VH-His/HA tag): QSVVTQPPSVSGAPGQGVTIPCTGSSSNIGAGYDVHWYQQLPGTAPKLLIYGNNNRPSGVPDRFSGSRSGSSASLAITGLQAEDEADYYCQSYDSSLSDVVFGGGTKLTVLGSRGGGGSGGGGSGGGGSLEMAEVQLVQSGAEVKKPGESLKISCKGSGYNFASEWIGWVRQMPGKGLEWMGLIYPAESEITYSPSFQGQVTISVDKSISTAYLQWSSLKASDTAMYYCARAWDANYIYMDIWGQGTLVTVSSTSGQAGQHHHHHHGAYPYDVPDYAS	157
(FoxP2)_#8 (scFv, also called EXT019-8; EXT019-08 scFv phage clone) scFv (VL-linker-VH-His/HA tag): QSVLTQPPSVSEAPRQRVTISCSGSSSNIGNNAVNWYQQLPGKAPKLLIYYDDLLPSGVSDRFSGSKSGTSASLAISGLQSEDEADYYCAAWDDSLNGPVFGTGTKVTVLGSRGGGGSGGGGSGGGGSLEMAEVQLVQSGAEVKKPGASVKVSCKASGYNFTSYGISWVRQAPGQGLEWMGWISAYNGNTNYAQKLQGRVTMTTDTSTSTAYMELRSLRSDDTAVYYCARDWDYDFLTGWDGMDVWGQGTTVTVSSTSGQAGQHHHHHHGAYPYDVPDYAS	142
(FoxP2)_#20 (scFv, also called EXT019-20 scFv phage clone) scFv (VL-linker-VH-His/HA tag): SYVLTQPPSVSVAPGKTARITCGGNNIGSKSVHWYQQKPGQAPVLVIYYDSDRPSGIPERFSGSNSGNTATLTISRVEAGDEADYYCQVWDSSSDRVVFGGGTKLTVLGSRGGGGSGGGGSGGGGSLEMAQVQLQQSGPGLVKPSQTLSLTCAISGDSISSKSAAWNWIRQSPSRGLEWLGRTYYRSKWYYEYAPSVRSRITINRDTSKNQFSLQLNSVTPEDTAVYYCARSTGTFDYWGQGTLVTVSSTSGQAGQHHHHHHGAYPYDVPDYAS	148

Input: State the recorded Median:FITC-A for this entry: (FoxP2)_#12 (scFv, also called EXT019-12 scFv phage clone) scFv (VL-linker-VH-His/HA tag): SYELTQPPSVSVAPGKTARITCGGNNIGSKSVHWYQQKPGQAPVLVIYYDSDRPSGIPERFSGSNSGNTATLTISRVEAGDEADYYCQVWDSSSDHRVFGGGTKVTVLGSRGGGGSGGGGSGGGGSLEMAEVQLVESGGGLVQPGGSLRLSCAASGFTFSSYWMNWVRQAPGKGLEWVANIKQDGSEKNYVDSVKGRFTISRDNAKNSLYLQMNSLRGEDTAVYYCARYGGGPYDSWGQGTLVTVSSTSGQAGQHHHHHHGAYPYDVPDYAS
Output: 151

This collection of values is drawn from patent US20190284262A1.
